Tested target: PD-1/PD-L1 (Homo sapiens)
Construct: Recombinant human PD-L1 protein (19-238) with a His-tag at the C-terminus; PD1-H5257 (PD-1)
Sequence (Q9NZQ7 19-238): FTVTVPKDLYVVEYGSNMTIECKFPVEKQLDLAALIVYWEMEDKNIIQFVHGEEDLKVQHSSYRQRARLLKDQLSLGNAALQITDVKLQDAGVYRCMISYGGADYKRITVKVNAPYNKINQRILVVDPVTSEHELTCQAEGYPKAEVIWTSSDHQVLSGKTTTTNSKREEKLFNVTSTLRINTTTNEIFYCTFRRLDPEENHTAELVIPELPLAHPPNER
Assay notes: PD-1/PD-L1 Homogeneous Time-Resolved Fluorescence (HTRF) binding assay
Experimental conditions: recombinant human PD-L1 (19-238)-His 10 nM, human PD-1 (25-167)-Fc 3 nM, 25° C., PBS pH 7.4
pIC50: −log10 of the molar value.
Quick list: pIC50 per entry.

Molecule: O[C@H]1CC[C@@H](NCc2ccc(N3CCCC(c4ccccc4)C3)cn2)CC1 (stereo partly drawn)
Result: 6.00 to 7.00

Tell me pIC50 reported for `Cc1c(-c2ccccc2)cccc1N1CCC2(CCCCN2)CC1`
6.00 to 7.00

Tell me pIC50 reported for `OCC1(CNC2CCN(c3cccc(Nc4ccccc4)c3Cl)CC2)CCC1`
5.70 to 6.00
